conditions: in THF, 333.15 K
Test readout: solubility (mole fraction)
# output: bare number, no unit

I'd like to know its solubility (mole fraction). The molecule in question is O=C(O)c1ccc(C(=O)O)o1
0.0128

---

settings: in THF, 303.15 K
Test readout: solubility (mole fraction)
Reply briefly: the number, and no unit.

What does the record list as solubility (mole fraction) for O=C(O)c1ccc(C(=O)O)o1 ?
0.00884

---

conditions: in diglyme, 318.15 K
Test readout: solubility (mole fraction)
Please state the value as a number alone, without comment.

Fill in the blank: the reported solubility (mole fraction) of O=C(O)c1ccc(C(=O)O)o1 is ____.
0.00767
